- Protocol Details: Solubility determination
- Assay type: physicochemical
- Details: thermodynamic from solid, water, 25 °C, read-out: Solubility of CRT in H2O
Quantity Kind: solubility at 72 h (µg/mL)
Lab book: enter the figure in µg/mL, no units written.

Lab note: measured solubility at 72 h of CC(/C=C/C=C(\C)C(=O)O)=C\C=C\C=C(C)\C=C\C=C(/C)C(=O)O was 1.23

----------
- Protocol Details: Pharmacokinetics study after intragastric administration
- Format: in vivo
- Details: Sprague-Dawley, rat, plasma, po; SD rats, 20 mg/kg intragastric, n = 6; read-out: AUC0–12
Quantity Kind: AUC(0-t) (ng·h/mL)
Lab book: enter the figure in ng·h/mL, no units written.

Lab note: measured AUC(0-t) of CC(/C=C/C=C(\C)C(=O)O)=C\C=C\C=C(C)\C=C\C=C(/C)C(=O)O [CRT, Crocetin] was 2410
